- PROTOCOL DESCRIPTION: Plasma exposures following IV infusion alone or in combination to Sprague-Dawley rats
- CONDITIONS: male, Sprague-Dawley, rat, in vivo, 1 mg/kg, Lenacapavir Concentrations in Rat Plasma When Dosed Alone, Lenacapavir IV infusion 1.0 mg/kg alone; 12.0 hrs; Mean
PROPERTY NAME: concentration at 12 h (µg/mL)
Kindly provide the numeric value in µg/mL only, without the unit symbol.

Lab note: CC(C)(C#Cc1ccc(-c2ccc(Cl)c3c(NS(C)(=O)=O)nn(CC(F)(F)F)c23)c([C@H](Cc2cc(F)cc(F)c2)NC(=O)Cn2nc(C(F)(F)F)c3c2C(F)(F)[C@@H]2C[C@H]32)n1)S(C)(=O)=O [Lenacapavir, reference compound] gave concentration at 12 h of 0.117
